# Tested system: LRRK2 (G2019S) (Homo sapiens, UniProt Q5S007, G2019S)
# Construct: Recombinant GST-LRRK2 (delta970), purified from baculovirus infected insect cells (SF9); GST (N)
# Sequence (Q5S007 970-2527 G2019S limits assumed): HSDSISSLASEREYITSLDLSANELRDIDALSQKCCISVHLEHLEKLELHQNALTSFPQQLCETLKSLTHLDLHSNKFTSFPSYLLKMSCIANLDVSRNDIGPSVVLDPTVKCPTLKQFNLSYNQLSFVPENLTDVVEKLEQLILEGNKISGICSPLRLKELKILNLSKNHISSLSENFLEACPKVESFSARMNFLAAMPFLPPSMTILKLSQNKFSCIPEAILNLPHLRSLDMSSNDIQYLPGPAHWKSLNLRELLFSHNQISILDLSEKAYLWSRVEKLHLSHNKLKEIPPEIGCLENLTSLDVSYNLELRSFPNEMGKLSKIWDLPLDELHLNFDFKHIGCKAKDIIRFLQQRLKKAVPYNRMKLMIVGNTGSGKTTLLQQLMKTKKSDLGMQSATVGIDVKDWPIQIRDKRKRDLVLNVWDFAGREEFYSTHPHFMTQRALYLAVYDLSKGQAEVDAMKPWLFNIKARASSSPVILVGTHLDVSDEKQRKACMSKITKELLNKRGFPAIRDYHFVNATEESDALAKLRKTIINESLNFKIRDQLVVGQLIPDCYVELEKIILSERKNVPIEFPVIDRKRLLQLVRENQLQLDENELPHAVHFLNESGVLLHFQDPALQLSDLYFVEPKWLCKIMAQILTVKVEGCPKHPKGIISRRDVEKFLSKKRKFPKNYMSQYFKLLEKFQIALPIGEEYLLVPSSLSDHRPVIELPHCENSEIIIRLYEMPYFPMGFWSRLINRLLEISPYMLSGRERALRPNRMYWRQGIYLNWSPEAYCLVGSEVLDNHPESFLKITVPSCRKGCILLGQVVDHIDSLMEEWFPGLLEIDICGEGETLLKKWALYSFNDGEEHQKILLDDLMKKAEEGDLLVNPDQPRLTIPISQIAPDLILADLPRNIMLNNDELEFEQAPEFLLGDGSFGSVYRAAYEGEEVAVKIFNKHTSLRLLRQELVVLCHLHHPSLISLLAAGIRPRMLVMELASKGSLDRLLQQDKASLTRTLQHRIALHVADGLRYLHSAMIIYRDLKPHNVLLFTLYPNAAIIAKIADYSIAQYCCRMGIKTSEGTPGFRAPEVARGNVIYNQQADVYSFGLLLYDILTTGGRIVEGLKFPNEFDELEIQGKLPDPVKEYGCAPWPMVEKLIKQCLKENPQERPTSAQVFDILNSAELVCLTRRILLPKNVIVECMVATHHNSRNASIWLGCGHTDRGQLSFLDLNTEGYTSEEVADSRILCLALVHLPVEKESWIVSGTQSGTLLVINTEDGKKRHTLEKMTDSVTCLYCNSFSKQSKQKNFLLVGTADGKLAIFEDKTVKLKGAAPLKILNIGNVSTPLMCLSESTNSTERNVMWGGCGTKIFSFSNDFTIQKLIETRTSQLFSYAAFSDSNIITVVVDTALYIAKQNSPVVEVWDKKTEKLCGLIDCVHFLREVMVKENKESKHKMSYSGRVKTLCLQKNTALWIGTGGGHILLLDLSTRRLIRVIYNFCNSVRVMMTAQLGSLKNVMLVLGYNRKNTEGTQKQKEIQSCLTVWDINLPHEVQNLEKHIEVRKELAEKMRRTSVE
# Assay overview: LRRK2 inhibition, radiometric kinase assay with recombinant GST-LRRK2 (delta970) and peptide substrate
# Assay setup: GST-LRRK2 (delta970) G2019S 30 nM, ATP ~52 μM (Km), 30 min at 30° C.
Endpoint name: IC50

Below are worked cases with known answers.
Molecule: CC(Sc1ccc2nnc(-c3cccs3)n2n1)C(=O)N1CCCCC1 (stereo not shown)
Endpoint name: IC50
Assay result: < 0.1 µM
--
Molecule: CCc1ccc(-c2nnc3ccc(SC(CC)C(=O)N4CCCCC4)nn23)s1 (stereo not shown)
Endpoint name: IC50
Assay result: 0.1 to 1 µM
--
Molecule: CCC(Sc1ccc2nnc(-c3cccs3)n2n1)C(=O)N1CCCCC1C (stereo not shown)
Endpoint name: IC50
Assay result: 0.1 to 1 µM
--
Molecule: CCOC(=O)C(CC)Sc1ccc2nnc(-c3cccc(F)c3)n2n1 (stereo not shown)
Endpoint name: IC50
Assay result: 1 to 5 µM
--
Molecule: CCCN(CCC)C(=O)C(C)Sc1ccc2nnc(-c3cccs3)n2n1 (stereo not shown)
Endpoint name: IC50
Assay result: 1 to 5 µM

Now let's try a different one.
## Task Any idea what its IC50 is? The molecule is CCCC(Sc1ccc2nnc(-c3cccs3)n2n1)C(=O)O (stereo not shown)
## Result 0.1 to 1 µM

---

# Tested system: LRRK2 (G2019S) (Homo sapiens, UniProt Q5S007, G2019S)
# Construct: Recombinant GST-LRRK2 (delta970), purified from baculovirus infected insect cells (SF9); GST (N)
# Assay overview: LRRK2 inhibition, radiometric kinase assay with recombinant GST-LRRK2 (delta970) and peptide substrate
# Assay setup: GST-LRRK2 (delta970) G2019S 30 nM, ATP ~52 μM (Km), 30 min at 30° C.
Endpoint name: IC50

Some molecules with recorded IC50:
Molecule: CCC(Sc1ccc2nnc(-c3cccs3)n2n1)C(=O)N1CCN(C)CC1 (stereo not shown)
Tested system: LRRK2 (G2019S) (Homo sapiens, UniProt Q5S007, G2019S)
IC50: ≥ 5000 nM

Molecule: CC(Sc1ccc2nnc(-c3cccs3)n2n1)C(=O)N1CCCC1 (stereo not shown)
Tested system: LRRK2 (G2019S) (Homo sapiens, UniProt Q5S007, G2019S)
IC50: < 100 nM

Molecule: Cc1scc(-c2nnc3ccc(SCC(N)=O)nn23)c1-c1ccccc1
Tested system: LRRK2 (G2019S) (Homo sapiens, UniProt Q5S007, G2019S)
IC50: ≥ 5000 nM

Molecule: CCOC(=O)CSc1ccc2nnc(-c3ccncc3)n2n1
Tested system: LRRK2 (G2019S) (Homo sapiens, UniProt Q5S007, G2019S)
IC50: ≥ 5000 nM

Molecule: CCC(Sc1ccc2nnc(-c3ccc(F)cc3)n2n1)C(=O)O (stereo not shown)
Tested system: LRRK2 (G2019S) (Homo sapiens, UniProt Q5S007, G2019S)
IC50: 100 to 1000 nM

## Task # IC50 lookup, item `O=C(O)CSc1ccc2nnc(-c3ccc(F)cc3)n2n1`
## Result ≥ 5000 nM

## Task Item CC(Sc1ccc2nnc(-c3cscn3)n2n1)C(=O)N1CCCCC1 (stereo not shown) has what recorded IC50?
## Result 100 to 1000 nM

## Task Name the recorded IC50 for CCC(Sc1ccc2nnc(-c3cccs3)n2n1)C(=O)NC1CCCCC1 (stereo not shown) .
## Result 100 to 1000 nM

## Task Given CC(Sc1ccc2nnc(-c3cccs3)n2n1)C(=O)O (stereo not shown) , state its recorded IC50.
## Result 100 to 1000 nM

## Task Recorded IC50 of `O=C(O)CSc1ccc2nnc(-c3csc4ccccc34)n2n1` , please.
## Result ≥ 5000 nM
